B1: SOAT1 (parent)
chain: KSAAMLAVFAVSAVVHEYALAVCL

# Variants of: B1
# test_method_notes: protein stability index of a GFP-peptide fusion (GPS, HEK-293T) (PSI 1-6); higher = more stable;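 note: lentivirally expressed fusions sorted by FACS into six bins by GFP to DsRed ratio, PSI derived from sequencing read proportions per bin multiplied by bin number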
# particulars: c terminus: a fixed tail appended
measured_endpoint: protein stability index
When you answer, write just the number.

Task item: Entry under review: KSAAMLAVFAVSAVVHEYALLVCL [A21L] . Reported protein stability index?
Reply: 3

Task item: Entry under review: KSAAMLAVFAVSAVVHTYALAVCL [E17T] . Reported protein stability index?
Reply: 3.21

Task item: Entry under review: KSAAMLAVFAVSAVVHEYALFVCL [A21F] . Reported protein stability index?
Reply: 3.01

Task item: Entry under review: KSAAMLAVFAVSAVHHEYALAVCL [V15H] . Reported protein stability index?
Reply: 3.15

Task item: Entry under review: FSAAMLAVFAVSAVVHEYALAVCL [K1F] . Reported protein stability index?
Reply: 2.89

Task item: Entry under review: KPAAMLAVFAVSAVVHEYALAVCL [S2P] . Reported protein stability index?
Reply: 2.97

Task item: Entry under review: KSAAMLANFAVSAVVHEYALAVCL [V8N] . Reported protein stability index?
Reply: 3.98

Task item: Entry under review: KSKAMLAVFAVSAVVHEYALAVCL [A3K] . Reported protein stability index?
Reply: 2.88

Task item: Entry under review: KSAAMLAVFAVSFVVHEYALAVCL [A13F] . Reported protein stability index?
Reply: 2.17

Task item: Entry under review: KSAARLAVFAVSAVVHEYALAVCL [M5R] . Reported protein stability index?
Reply: 4.56

Task item: Entry under review: KSAAMLAVFAVSAVVHEYALAACL [V22A] . Reported protein stability index?
Reply: 3.06
